# measurement.target: T1, human CD19 exon1-3-his protein (human, UniProt P15391 20-186, limits assumed)
# T1 construct: made in HEK293E cells; also called membrane-distal end; not shown: His tag
# T1 sequence (looked up): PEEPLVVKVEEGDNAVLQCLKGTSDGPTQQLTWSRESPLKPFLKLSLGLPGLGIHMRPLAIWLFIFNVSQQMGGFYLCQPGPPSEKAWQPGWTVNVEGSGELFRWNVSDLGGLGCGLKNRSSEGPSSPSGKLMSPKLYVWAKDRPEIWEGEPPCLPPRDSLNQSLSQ
# experimental.protocol: ELISA, coated at 2 ug/mL
# Description: Human CD19-his protein (purchased from ACROBiosystems, catalog number: CD9-H52H2) was diluted with PBS to a final concentration of 4 μg/mL, and then added to a 96-well ELISA plate at 100 μl/well. […] The OD450 nm values were read by an ELISA microplate reader (Multimode Plate Reader, EnSight, purchased from Perkin Elmer). […]
parameter.measured: binding result

binder: F1-mab003 (antibody, human IgG1, V domains shown, human-murine chimeric antibody, human IgG1) VH: EVQLQQSGPELVKPGASVKMSCKASGYTFTDYVMHWVRQTPGQGLEWIGYFNPYNDGTNYNEKFKVKATLTSDKSSTTAYMELSSLTSEDSAVYYCARGVYYYGRDFDYWGQGTTLTVSS VL: DVVLTQTPLSLPVSLGDQASISCRSSQSLENSNGNSYLNWYLQKPGQSPQLLIYRVSNRFSGVLDRFSGSGSGTDFTLKISRVEAEDLGVYFCLQITHVPWTFGGGTKLEIK
value: no binding

binder: F4.272.13 (antibody, human IgG1, V domains shown, human-murine chimeric antibody, human IgG1) VH: QVQLKESGPGLVAPSQSLSITCTVSGFSLTDYGVSWIRQPPGKGLEWLGVIWGSETTFYNSALKSRLSISKDNSKSQLFLQMNSLQADDTAIYYCAKHHYYGGSFSMDYWGQGTSVTVSS VL: DIQMTQTTSSLSASLGDRVTISCRASQDINNYLNWYQQKPDGTVKFLIYYTSRLHSGVPSRFSGSGSGTDYSLTISDLEQEDIATYFCQQGNTLPYTFGGGTKLEIK
value: no binding
